Tested on: BV-2 cells
Assay: RT-PCR for CXCL10 and IFNβ transcripts in BV-2 cells
Type: cell-based, mouse
Conditions: BV-2 cells, 200 μM, 24 hours
measurement name: induction of CXCL10 mRNA

Look over these answered cases.
molecule	measurement name	result
NC(=O)c1ncn([C@@H]2O[C@H](CO)[C@@H](O)[C@H]2O)n1 [Ribavirin]	induction of CXCL10 mRNA	failed to induce
Cc1ccc2c(=O)c3cccc(CC(=O)O)c3oc2c1C [DMXAA]	induction of CXCL10 mRNA	strongly induced
Nc1nc2c(ncn2COCCO)c(=O)[nH]1 [Acyclovir]	induction of CXCL10 mRNA	failed to induce
NC1=Nc2c(ncn2COC(CO)CO)C(OCCCSSCCCOC2NC(N)=Nc3c2ncn3COC(CO)CO)N1 (stereo not shown) [thiol-GCV]	induction of CXCL10 mRNA	increased potency
NC1=Nc2c(ncn2COC(CO)CO)C(OCCOCCOCCOCCOc2nc(N)nc3c2ncn3COC(CO)CO)N1 (stereo not shown) [diGCV]	induction of CXCL10 mRNA	increased potency

Please state induction of CXCL10 mRNA for every molecule in the list that follows.
1. Nc1nc2nc[nH]c2c(=O)[nH]1 [guanine]
2. O=C(O)P(=O)(O)O [Foscarnet]

*A*
1: failed to induce; 2: failed to induce

Please state induction of CXCL10 mRNA for every molecule in the list that follows.
1. Nc1nc2c(ncn2[C@@H]2O[C@@H]3COP(=O)(O)O[C@H]4[C@@H](O)[C@H](n5cnc6c(=O)[nH]c(N)nc65)O[C@@H]4COP(=O)(O)O[C@H]3[C@H]2O)c(=O)[nH]1 [c-diGMP]
2. Nc1nc2c(ncn2CCC(CO)CO)c(=O)[nH]1 [Penciclovir]

*A*
1: strongly induced; 2: failed to induce

Please state induction of CXCL10 mRNA for every molecule in the list that follows.
1. Nc1ncnc2c1ncn2[C@@H]1O[C@H](CO)[C@@H](O)[C@@H]1O [Vidarabine]
2. Nc1nc2c(ncn2[C@@H]2O[C@@H]3COP(=O)(O)O[C@H]4[C@@H](O)[C@H](n5cnc6c(N)ncnc65)O[C@@H]4COP(=O)(O)O[C@@H]2[C@@H]3O)c(=O)[nH]1 [cGAMP, cyclic-GAMP]
3. Nc1ccn(C[C@@H](CO)OCP(=O)(O)O)c(=O)n1 [Cidofovir]
4. Nc1nc2c(ncn2[C@@H]2O[C@H](CO)[C@@H](O)[C@H]2O)c(=O)[nH]1 [guanosine]

*A*
failed to induce
strongly induced
failed to induce
failed to induce

* * *

System: BV-2 cells
Experiment: RT-PCR for CXCL10 and IFNβ transcripts in BV-2 cells
Type: cell-based, mouse
Conditions: microglia (BV-2, primary), 200 μM
Procedure: BV-2 mouse microglia cells were grown in DMEM+10% FBS and THP-1 human monocyte cells were grown in RPMI-40+10% FBS+0.05 mM β-mercaptoethanol at 37° C., 5% CO2. Adherent cells were split using 1×TrypLE (Gibco). […] Secreted signaling proteins were measured in supernatants from cultured cells stimulated with GCV and conditioned for 24 hours in the absence of serum using two independent Luminex arrays (Human Immune Monitoring Center, Stanford and Eve technologies, Canada). […]

molecule	induction of IFNβ transcript
Nc1nc2c(ncn2[C@@H]2O[C@@H]3COP(=O)(O)O[C@H]4[C@@H](O)[C@H](n5cnc6c(N)ncnc65)O[C@@H]4COP(=O)(O)O[C@@H]2[C@@H]3O)c(=O)[nH]1 [cGAMP, cyclic-GAMP]	strongly induced
Cc1ccc2c(=O)c3cccc(CC(=O)O)c3oc2c1C [DMXAA]	strongly induced
Nc1nc2c(ncn2[C@@H]2O[C@@H]3COP(=O)(O)O[C@H]4[C@@H](O)[C@H](n5cnc6c(=O)[nH]c(N)nc65)O[C@@H]4COP(=O)(O)O[C@H]3[C@H]2O)c(=O)[nH]1 [c-diGMP]	strongly induced
